EXPERIMENT: logP determination by HPLC (EEC-Directive 79/831 Annex V. A8)
Type: physicochemical
EXPERIMENTAL CONDITIONS: gradient method, acetonitrile/0.1% aqueous phosphoric acid
RESULT TYPE: logP

COMPOUND	RESULT TYPE	VALUE OBSERVED
CON=C(C(=O)N(C)SC(F)(Cl)Cl)c1ccccc1COc1ccccc1C [Example 5]	logP	5.35
CCc1ccccc1Oc1ncnc(Oc2ccccc2C(=NOC)C(=O)N(C)SC(F)(Cl)Cl)c1F [Example 109]	logP	5.25
CON=C(C(=O)N(C)SC(F)(Cl)Cl)c1ccccc1Oc1ncnc(Oc2cccc(C(F)(F)F)c2Cl)c1F [Example 126]	logP	5.42
CON=C(C(=O)N(C)SC(F)(Cl)Cl)c1ccccc1Oc1cc(Oc2cccc(Cl)c2C)ncn1 [Example 141]	logP	5.29

====

EXPERIMENT: logP determination by HPLC (EEC-Directive 79/831 Annex V. A8)
Type: physicochemical
EXPERIMENTAL CONDITIONS: gradient method, acetonitrile/0.1% aqueous phosphoric acid
RESULT TYPE: logP

These solved cases illustrate the format of a correct answer.
MOLECULE	VALUE OBSERVED
CON=C(C(=O)N(C)SC(F)(F)F)c1ccccc1COc1ccccc1C	4.93
CNC(=O)N(C)C(=O)C(=NOC)c1ccccc1COc1ccccc1C	3.29

(I) CON=C(C(=O)N(C)SC(F)(Cl)Cl)c1ccccc1Oc1ncnc(Oc2ccc(F)cc2F)c1F
(II) CCOCN(C)C(=O)C(=NOC)c1ccccc1Oc1ccccc1
Q) So which one has the bigger logP here, I or II ? Let me know the label of the one you choose.
A) I
(I: 4.85, II: 3.36)

(I) CCC(C)c1ccccc1Oc1ncnc(Oc2ccccc2C(=NOC)C(=O)N(C)SC(F)(Cl)Cl)c1F (stereo not drawn)
(II) CON=C(C(=O)N(C)SC(=O)OC)c1ccccc1CON=C(C)c1ccc(OC)c(OC)c1
Q) I or II : whose logP is greater? Answer by quoting the chosen item's label.
A) I

(A) CON=C(C(=O)N(C)SC(F)(Cl)Cl)c1ccccc1COc1cc(F)ccc1F
(B) CON=C(C(=O)NC#N)c1ccccc1COc1ccccc1C
Q) For the pair A and B , which member has the lower logP number? Answer by stating the label of the chosen item.
A) B
(B: 3.34, A: 4.86)

====

EXPERIMENT: logP determination by HPLC (EEC-Directive 79/831 Annex V. A8)
Assay type: physicochemical
EXPERIMENTAL CONDITIONS: gradient method, acetonitrile/0.1% aqueous phosphoric acid
RESULT TYPE: logP

COMPOUND	VALUE OBSERVED
CCc1ccc(Oc2ncnc(Oc3ccccc3C(=NOC)C(=O)N(C)SC(F)(Cl)Cl)c2F)cc1	5.38
CCCCOP(=O)(OC)N(C)C(=O)C(=NOC)c1ccccc1COc1ccccc1C (centres unmarked)	4.53
CON=C(C(=O)N(C)SC(F)(Cl)Cl)c1ccccc1Oc1ncnc(Oc2c(C)cccc2C)c1F	5.4
CON=C(C(=O)N(C)SC(F)(Cl)Cl)c1ccccc1Oc1ncnc(Oc2ccc(C(F)(F)F)cc2OC)c1F	5.16
CON=C(C(=O)N(C)SC(F)(Cl)Cl)c1ccccc1Oc1ncnc(Oc2ccc(N)c(Cl)c2Cl)c1F	4.68
CON=C(C(=O)N(C)SC(F)(Cl)Cl)c1ccccc1Oc1ncnc(Oc2cccc(C(F)(F)F)c2)c1F	5.11
CON=C(C(=O)N(C)SC(F)(Cl)Cl)c1ccccc1OC	3.69
CN(SC(F)(Cl)Cl)C(=O)C(=NOCF)c1ccccc1Oc1ncnc(Oc2ccccc2Cl)c1F	4.84
